assayExplanation: Determination of the logP values (formic acid method) by HPLC
Assay type: physicochemical
studyConditions: reversed-phase HPLC column (C 18), pH 3.4, HPLC on reversed-phase column (C 18), acidic range (pH 3.4), 55° C.; Table 1; read-out: logP (HCOOH)
What chromatographic logP was measured for each of the following?
Field format: numeric only.

Retrieve chromatographic logP measured for Cc1nn(-c2cccnc2)cc1C(=O)NCC(F)F and print it.
1.12

Quick one: give measured chromatographic logP for Cc1nn(-c2cccnc2)cc1C(=O)NCC1CC1
1.32

Give reported chromatographic logP value for FC(F)(F)CNC(=S)c1cnn(-c2cccnc2)c1
1.97

Please give the documented chromatographic logP of COC(=O)C1(NC(=O)c2cnn(-c3cccnc3)c2)CC1
0.84

Please report chromatographic logP for the following molecule: Cc1nn(-c2cccnc2)cc1C(=O)NCC#N
0.79

Let me know recorded chromatographic logP for Cc1nn(-c2cccnc2)cc1C(=O)NCCF , thanks.
0.87

Give the value of chromatographic logP reported for the following: COC(CNC(=O)c1cnn(-c2cccnc2)c1)OC
0.83

Quick one: give measured chromatographic logP for COC(CNC(=O)c1cn(-c2cccnc2)nc1C)OC
1.04

// Input: O=C(NCCF)c1cnn(-c2cccnc2)c1 . Output its chromatographic logP only.
0.56

Please indicate chromatographic logP recorded for O=C(NCc1ccccn1)c1cnn(-c2cccnc2)c1
0.31

Provide only the value of recorded chromatographic logP for N#CCNC(=O)c1cnn(-c2cccnc2)c1
0.52

Identify measured chromatographic logP associated with Cc1cc(C)nc(CNC(=O)c2cn(-c3cccnc3)nc2C)n1
1.2

Fill in reported chromatographic logP for this entry: COC(=O)C(C)NC(=O)c1cn(-c2cccnc2)nc1C (stereo not drawn)
1.14

Give the measured chromatographic logP for Cc1nn(-c2cccnc2)cc1C(=O)NC1(C(F)(F)F)CC1
1.63

Please supply the value of reported chromatographic logP for the item COC(=O)C(C)NC(=O)c1cnn(-c2cccnc2)c1 (stereo not drawn)
0.91

Determine from records and report chromatographic logP for Cc1nn(-c2cccnc2)cc1C(=O)NCC(C)(F)F
1.35

Return chromatographic logP for the following molecule: Cc1nn(-c2cccnc2)cc1C(=O)N(C)C1CC1
1.17

Look up and report measured chromatographic logP for this entry: Cc1nn(-c2cccnc2)cc1C(=O)NCCC(F)(F)F
1.52

Return reported chromatographic logP. Input molecule: O=C(NCC1Cc2ccccc2O1)c1cnn(-c2cccnc2)c1 (stereo not drawn)
1.68

Query chromatographic logP for Cc1nn(-c2cccnc2)cc1C(=O)NCC1COCCO1 (stereo not drawn)
0.91

Determine from records and report chromatographic logP for Cc1nn(-c2cccnc2)cc1C(=O)N(C)CC(F)(F)F
1.57

---

assayExplanation: Determination of the logP values (formic acid method) by HPLC
Type: physicochemical
studyConditions: HPLC on reversed-phase column (C 18), acidic range (pH 3.4), 55° C.; Table 1; read-out: logP (HCOOH)
parameterMeasured: chromatographic logP

Please list chromatographic logP recorded for the compound COC(=O)N(C)NC(=O)c1cn(-c2cccnc2)nc1C
0.79

Supply reported chromatographic logP belonging to this compound: COC(=O)NNC(=O)c1cn(-c2cccnc2)nc1C
0.52

---

assayExplanation: Determination of the logP values (formic acid method) by HPLC
Type: physicochemical
studyConditions: reversed-phase HPLC column (C 18), pH 3.4, HPLC on reversed-phase column (C 18), acidic range (pH 3.4), 55° C.; Table 1; read-out: logP (HCOOH)
Consider the following compounds; for each one, report its chromatographic logP.
I'd appreciate a reply containing only the number, no unit.

In one line, give reported chromatographic logP of the entry O=C(NCC1OCCO1)c1cnn(-c2cccnc2)c1 .
0.66

Supply reported chromatographic logP belonging to this compound: O=C(NCC(F)(F)C(F)(F)F)c1cnn(-c2cccnc2)c1
1.69

Output measured chromatographic logP for this item: O=C(NCC(F)F)c1cnn(-c2cccnc2)c1
0.87

Give chromatographic logP for the following compound: O=C(NC1CC1)c1cnn(-c2cccnc2)c1
0.78

Give recorded chromatographic logP. O=C(NCC1COCCO1)c1cnn(-c2cccnc2)c1 (centres unmarked)
0.7

Please give measured chromatographic logP of the following entry: O=C(NCC(F)(F)F)c1cnn(-c2cccnc2)c1
1.18

Given the compound O=C(NCCC(F)(F)F)c1cnn(-c2cccnc2)c1 , write its reported chromatographic logP.
1.31

Tell me its chromatographic logP given COc1cc(OC)nc(CNC(=O)c2cnn(-c3cccnc3)c2)n1 as the entry.
1.37

Give the value of chromatographic logP reported for the following: Cc1nn(-c2cccnc2)cc1C(=O)NCc1ncccn1
0.78

Recall and state the measured chromatographic logP for Cc1nn(-c2cccnc2)cc1C(=O)NCc1nc(C2CC2)no1 .
1.43

Quickly give me recorded chromatographic logP for Cc1nn(-c2cccnc2)cc1C(=O)NCC1OCCO1
0.88
